# test_system: plasmepsin II from Plasmodium falciparum (Plm II) (Plasmodium falciparum, UniProt P46925)
# Construct: made in house; host or cells: Escherichia coli
# Sequence (P46925 125-453): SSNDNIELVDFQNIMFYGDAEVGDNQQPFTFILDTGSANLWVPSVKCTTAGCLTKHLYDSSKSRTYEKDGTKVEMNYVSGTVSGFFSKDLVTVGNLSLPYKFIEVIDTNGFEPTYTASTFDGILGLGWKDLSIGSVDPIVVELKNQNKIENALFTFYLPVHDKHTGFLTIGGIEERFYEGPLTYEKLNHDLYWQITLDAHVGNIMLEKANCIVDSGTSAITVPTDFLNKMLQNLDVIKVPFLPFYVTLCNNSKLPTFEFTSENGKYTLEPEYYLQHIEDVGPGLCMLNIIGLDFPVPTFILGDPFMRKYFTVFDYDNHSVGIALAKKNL
# test_summary: Plasmepsin II inhibition assay, hydrolysis of chromogenic substrate
# Assay type: biochemical
# reported_conditions: 25° C., 10 mM sodium formate, 2% DMSO, pH 4.0; fit to competitive inhibition; read-out: Ki Plm II
// reported Ki for each item listed
Write the number in nM without appending the unit.

compound="Cc1cccc(C)c1OCC(=O)N[C@@H](Cc1ccccc1)[C@H](O)C(=O)N1CSC(C)(C)[C@H]1C(=O)N[C@H](CO)c1ccccc1 [KNI-10043]" test_system="plasmepsin II from Plasmodium falciparum (Plm II) (Plasmodium falciparum, UniProt P46925)" readout_number=22

Would you kindly share the measured Ki for CCSC[C@H](NC(=O)COc1cccc2cnccc12)C(=O)N[C@@H](Cc1ccccc1)[C@H](O)C(=O)N1CSC(C)(C)[C@H]1C(=O)NC(C)(C)C [KNI-10057] ?
428

Could you tell me which Ki is on file for Cc1ccc(CNC(=O)[C@H]2N(C(=O)[C@@H](O)[C@H](Cc3ccccc3)NC(=O)COc3c(C)cccc3C)CSC2(C)C)cc1 [KNI-10052] ?
572

Quick one: Ki for Cc1cccc(C)c1OCC(=O)N[C@@H](Cc1ccccc1)[C@H](O)C(=O)N1CSC(C)(C)[C@H]1C(=O)N[C@H]1CCc2ccccc21 [KNI-10026] ?
15

Report Ki for CSC[C@H](NC(=O)COc1cccc2cnccc12)C(=O)N[C@@H](Cc1ccccc1)[C@@H](O)C(=O)N1CSC[C@H]1C(=O)NC(C)(C)C [KNI-529] please.
8090

I have this compound here, CC(C)(C)NC(=O)[C@H]1N(C(=O)[C@@H](O)[C@H](Cc2ccccc2)NC(=O)CC(C)(C)C(=O)O)CSC1(C)C [KNI-413] , and I need its recorded Ki.
1390
